biological target: BACE2 (Rattus norvegicus); construct: endogenous cellular BACE2 in the Ins1e rat cell line; endogenous in cells; experiment: Assay for BACE inhibition by measuring cellular TMEM27 cleavage (INS-TMEM27 cells, ELISA of shed TMEM27); settings: inhibition of human TMEM27 cleavage by endogenous cellular BACE2 in INS1e-derived INS-TMEM27 rat cell line; ELISA of shed TMEM27 in supernatant
attribute-measured: IC50
Write your answer as a measured quantity: the number, then the unit.

Examples with their reported IC50 follow.
| compound | IC50 |
| --- | --- |
| CCn1cc(CNC[C@@H](O)[C@H](Cc2ccccc2)NC(=O)c2cc(C)cc(C(=O)N(C)Cc3ccccn3)c2)cn1 [Example 37] | 1 nM |
| COc1cccc(CNC[C@@H](O)[C@H](Cc2ccccc2)NC(=O)c2cccc(C(=O)N(C)Cc3nc(C)cs3)c2)c1 [Example 3] | 175 nM |
| Cc1cc(C(=O)N[C@@H](Cc2ccccc2)[C@H](O)CNCc2cccc(OC(F)(F)F)c2)cc(C(=O)N2CCCC2c2ccccc2)c1 (stereo partly drawn) [Example 43] | 3 nM |
| Cn1nccc1C1CCCN1C(=O)c1cccc(C(=O)N[C@@H](Cc2ccccc2)[C@H](O)CNCc2cccc(C(F)(F)F)c2)c1 (stereo partly drawn) [Example 15] | 332 nM |

IC50 value, target or system BACE2 (Rattus norvegicus), for Cc1csc(CN(C)C(=O)c2cccc(C(=O)N[C@@H](Cc3ccccc3)[C@H](O)CNCc3cccc(C(F)(F)F)c3)c2)n1 [Example 1] : 205 nM

IC50 value, target or system BACE2 (Rattus norvegicus), for O=C(N[C@@H](Cc1ccccc1)[C@H](O)CNCc1cccc(C(F)(F)F)c1)c1cccc(C(=O)N2CCC[C@@H]2c2ccccc2)c1 [Example 66] : 314 nM

----------
Molecular target: BACE2 (Rattus norvegicus, UniProt Q6IE75)
Construct: endogenous cellular BACE2 in the Ins1e rat cell line; endogenous in cells
Sequence (Q6IE75 63-514): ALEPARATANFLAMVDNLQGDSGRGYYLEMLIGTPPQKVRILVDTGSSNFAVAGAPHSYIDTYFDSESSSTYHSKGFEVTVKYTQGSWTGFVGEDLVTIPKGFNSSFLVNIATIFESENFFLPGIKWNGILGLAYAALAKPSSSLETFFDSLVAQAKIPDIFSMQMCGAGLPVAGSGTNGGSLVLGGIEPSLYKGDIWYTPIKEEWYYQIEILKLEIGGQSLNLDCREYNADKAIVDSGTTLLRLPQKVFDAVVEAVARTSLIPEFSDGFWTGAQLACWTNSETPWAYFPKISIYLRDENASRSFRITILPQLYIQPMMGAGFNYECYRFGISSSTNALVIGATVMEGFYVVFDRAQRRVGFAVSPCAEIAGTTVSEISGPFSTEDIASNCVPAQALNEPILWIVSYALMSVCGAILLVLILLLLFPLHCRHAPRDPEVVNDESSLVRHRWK
Assay: Assay for BACE inhibition by measuring cellular TMEM27 cleavage (INS-TMEM27 cells, ELISA of shed TMEM27)
Conditions: inhibition of human TMEM27 cleavage by endogenous cellular BACE2 in INS1e-derived INS-TMEM27 rat cell line; ELISA of shed TMEM27 in supernatant
In this section, each of the compounds is paired with its reported pIC50.
Note on pIC50: it is the negative log10 of concentration, concentration in mol/L.

| compound | pIC50 |
| --- | --- |
| Cc1cc(C2CCCN2C(=O)c2cccc(C(=O)N[C@@H](Cc3ccccc3)[C@H](O)CNCc3cccc(C(F)(F)F)c3)c2)on1 (stereo partly drawn) [Example 16] | 7.26 |

// O=C(NCc1ccccn1)c1cccc(C(=O)N[C@@H](Cc2ccccc2)[C@H](O)CNCc2cccc(OC(F)(F)F)c2)c1 [Example 6] : pIC50 value = 6.28

// CC1(C)[C@@H]2CC[C@@]1(C)CN(C(=O)c1cccc(C(=O)N[C@@H](Cc3ccccc3)[C@H](O)CNCc3cccc(OC(F)(F)F)c3)c1)C2 [Example 8] : pIC50 value = 6.09

// CN(c1cc(C(=O)N[C@@H](Cc2ccccc2)[C@H](O)CNCc2cccc(OC(F)(F)F)c2)cc(C(=O)N2CCCC2c2cccs2)c1)S(C)(=O)=O (stereo partly drawn) [Example 45] : pIC50 value = 7.96

// CN(c1cc(C(=O)N[C@@H](Cc2ccccc2)[C@H](O)CNCc2cccc(OC(F)(F)F)c2)cc(C(=O)N2CCCC2c2ccccc2)c1)S(C)(=O)=O (stereo partly drawn) [Example 42] : pIC50 value = 7.21

// Cc1ccc(C2CCCN2C(=O)c2cccc(C(=O)N[C@@H](Cc3ccccc3)[C@H](O)CNCc3cccc(C(F)(F)F)c3)c2)cc1 (stereo partly drawn) [Example 55] : pIC50 value = 7.38

----------
molecular target: BACE2 (Rattus norvegicus, UniProt Q6IE75); construct: endogenous cellular BACE2 in the Ins1e rat cell line; endogenous in cells; host or cells: INS-TMEM27 (INS1e-derived rat beta-cell line with doxycycline-inducible full-length hTMEM27); test: Assay for BACE inhibition by measuring cellular TMEM27 cleavage (INS-TMEM27 cells, ELISA of shed TMEM27); format: cell-based; settings: inhibition of human TMEM27 cleavage by endogenous cellular BACE2 in INS1e-derived INS-TMEM27 rat cell line; ELISA of shed TMEM27 in supernatant
pIC50: −log10 of the molar value.
Binning of pIC50 into classes: bucket A: < 7; bucket B: ≥ 7 and < 8; bucket C: ≥ 8

Exercise: Hey, which category is Cc1cc(C(=O)N[C@@H](Cc2ccccc2)[C@H](O)CNCc2cccc(OC(F)(F)F)c2)cc(C(=O)N2CCCC2c2cccs2)c1 (stereo partly shown) in, do you know?
Key: bucket C

----------
molecular target: BACE2 (Rattus norvegicus, UniProt Q6IE75); construct: endogenous cellular BACE2 in the Ins1e rat cell line; endogenous in cells; experiment: Assay for BACE inhibition by measuring cellular TMEM27 cleavage (INS-TMEM27 cells, ELISA of shed TMEM27); conditions: inhibition of human TMEM27 cleavage by endogenous cellular BACE2 in INS1e-derived INS-TMEM27 rat cell line; ELISA of shed TMEM27 in supernatant
Binning of IC50 into classes: band A = under 9 nM, band B = from 9 nM up to 70 nM, band C = 70 nM and over

Use these answered entries as a reference point.
| molecule | discrete-label |
| --- | --- |
| O=C(N[C@@H](Cc1ccccc1)[C@H](O)CNCc1cccc(C(F)(F)F)c1)c1cccc(C(=O)N2CCC[C@H]2Cc2ccccc2)c1 [Example 65] | band B |
| CCn1cc(CNC[C@@H](O)[C@H](Cc2ccccc2)NC(=O)c2cc(C)cc(C(=O)N3CCCC3c3cccs3)c2)cn1 (stereo partly drawn) [Example 39] | band A |
| CCn1cc(CNC[C@@H](O)[C@H](Cc2ccccc2)NC(=O)c2cc(C)cc(C(=O)N3CCCC3c3ccccc3)c2)cn1 (stereo partly drawn) [Example 36] | band A |

Exercise: Hey, which category is O=C(N[C@@H](Cc1ccccc1)[C@H](O)CNCc1cccc(C(F)(F)F)c1)c1cccc(C(=O)N2CCCC2c2cccc(Cl)c2)c1 (stereo partly drawn) [Example 57] in, do you know?
Key: band C

Exercise: Hey, which category is Cc1csc([C@H]2CCCN2C(=O)c2cccc(C(=O)N[C@@H](Cc3ccccc3)[C@H](O)CNCc3cccc(OC(F)(F)F)c3)c2)n1 [Example 21] in, do you know?
Key: band B

Exercise: Hey, which category is CCn1cc(CNC[C@@H](O)[C@H](Cc2ccccc2)NC(=O)c2cc(C)cc(C(=O)N3CCC[C@@H]3c3nc(C)cs3)c2)cn1 [Example 34] in, do you know?
Key: band C

Exercise: Hey, which category is COc1cccc(CNC[C@@H](O)[C@H](Cc2ccccc2)NC(=O)c2cccc(C(=O)N3CCCC3c3cccs3)c2)c1 (stereo partly drawn) [Example 30] in, do you know?
Key: band B

Exercise: Hey, which category is CC1CCN(C(=O)c2cccc(C(=O)N[C@@H](Cc3ccccc3)[C@H](O)CNCc3cccc(C(F)(F)F)c3)c2)C1c1ccc(F)cc1 (stereo partly drawn) [Example 63] in, do you know?
Key: band A

----------
Target: BACE2 (Rattus norvegicus)
Construct: endogenous cellular BACE2 in the Ins1e rat cell line; endogenous in cells
Sequence (Q6IE75 63-514): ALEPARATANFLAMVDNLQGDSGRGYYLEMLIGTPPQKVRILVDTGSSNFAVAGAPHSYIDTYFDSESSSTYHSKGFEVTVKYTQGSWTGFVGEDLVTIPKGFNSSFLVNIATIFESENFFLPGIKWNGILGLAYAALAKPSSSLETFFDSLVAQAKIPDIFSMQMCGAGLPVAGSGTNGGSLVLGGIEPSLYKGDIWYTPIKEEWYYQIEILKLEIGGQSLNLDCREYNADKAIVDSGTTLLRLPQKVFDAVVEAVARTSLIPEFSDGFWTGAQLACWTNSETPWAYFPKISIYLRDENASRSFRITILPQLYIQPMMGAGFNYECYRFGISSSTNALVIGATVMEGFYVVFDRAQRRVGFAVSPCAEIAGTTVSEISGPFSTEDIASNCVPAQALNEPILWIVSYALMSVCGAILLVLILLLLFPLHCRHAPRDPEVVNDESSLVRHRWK
Test: Assay for BACE inhibition by measuring cellular TMEM27 cleavage (INS-TMEM27 cells, ELISA of shed TMEM27)
Settings: inhibition of human TMEM27 cleavage by endogenous cellular BACE2 in INS1e-derived INS-TMEM27 rat cell line; ELISA of shed TMEM27 in supernatant
attribute-measured: IC50 (nM)
Form entry: value (nM) — number only.

| molecule | units | IC50 |
| --- | --- | --- |
| O=C(N[C@@H](Cc1ccccc1)[C@H](O)CNCc1cccc(OC(F)(F)F)c1)c1cccc(C(=O)N2CCCC2c2cccnc2)c1 (stereo partly shown) | nM | 70 |
| CN(Cc1ccccn1)C(=O)c1cccc(C(=O)N[C@@H](Cc2ccccc2)[C@H](O)CNCc2cccc(C(F)(F)F)c2)c1 | nM | 47 |
| COc1cccc(CNC[C@@H](O)[C@H](Cc2ccccc2)NC(=O)c2cccc(C(=O)N3CCCC3c3ccc(C)s3)c2)c1 (stereo partly shown) | nM | 314 |
| O=C(N[C@@H](Cc1ccccc1)[C@H](O)CNCc1cccc(C(F)(F)F)c1)c1cccc(C(=O)N2CCCC2C2CCCC2)c1 (stereo partly shown) | nM | 66 |
| O=C(N[C@@H](Cc1ccccc1)[C@H](O)CNCc1cccc(C(F)(F)F)c1)c1cccc(C(=O)N2CCCC2c2ccc(F)c(Cl)c2)c1 (stereo partly shown) | nM | 33 |
| O=C(N[C@@H](Cc1ccccc1)[C@H](O)CNCc1cccc(C(F)(F)F)c1)c1cccc(C(=O)N2CCC[C@H]2c2ccc(F)cc2)c1 | nM | 4 |
| Cc1csc([C@H]2CCCN2C(=O)c2cc(C(=O)N[C@@H](Cc3ccccc3)[C@H](O)CNCc3cccc(C(F)(F)F)c3)cc(N(C)S(C)(=O)=O)c2)n1 | nM | 81 |
| CC(=O)C1CC(c2ccc(F)cc2)N(C(=O)c2cccc(C(=O)N[C@@H](Cc3ccccc3)[C@H](O)CNCc3cccc(C(F)(F)F)c3)c2)C1 (stereo partly shown) | nM | 26 |
| Cc1csc([C@H]2CCCN2C(=O)c2cccc(C(=O)N[C@@H](Cc3ccccc3)[C@H](O)CNCc3cccc(C(F)(F)F)c3)c2)n1 | nM | 9 |

IC50 value, target or system BACE2 (Rattus norvegicus), for Cc1cc(C(=O)N[C@@H](Cc2ccccc2)[C@H](O)CNCc2cccc(C(F)(F)F)c2)cc(C(=O)N2CCCC2c2cccs2)c1 (stereo partly shown) : 1.9
